- Measurement Target: MAP2K6 (human) (UniProt P52564)
- Sequence (P52564 whole entry, looked up): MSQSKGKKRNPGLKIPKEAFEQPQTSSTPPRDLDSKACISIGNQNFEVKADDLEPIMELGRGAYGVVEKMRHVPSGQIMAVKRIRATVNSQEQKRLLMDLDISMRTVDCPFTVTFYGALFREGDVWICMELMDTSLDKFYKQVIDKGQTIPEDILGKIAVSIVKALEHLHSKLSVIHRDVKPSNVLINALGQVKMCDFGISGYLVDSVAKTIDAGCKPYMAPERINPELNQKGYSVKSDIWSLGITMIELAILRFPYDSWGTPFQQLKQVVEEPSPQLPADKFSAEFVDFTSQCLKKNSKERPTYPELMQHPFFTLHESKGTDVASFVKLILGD
- Procedure Text: KINOMEscan competition binding
- Condition Set: compound 10.0 µM
The following compounds are listed with their measured kinase still bound, per cent of control values.

{"Substance Smiles": "CN(C)C/C=C/C(=O)Nc1cccc(Nc2ncc3c(n2)N(C)c2ccccc2C(=O)N3C)c1", "Unit Annotation": "%", "kinase still bound, per cent of control": 95}
{"Substance Smiles": "CCN1CCN(Cc2ccc(Nc3ncc4c(n3)N(C)c3ccccc3C(=O)N4C)cc2C(F)(F)F)CC1", "Unit Annotation": "%", "kinase still bound, per cent of control": 75}
{"Substance Smiles": "O=C1Nc2ccc(I)cc2/C1=C/c1cc(Br)c(O)c(Br)c1", "Unit Annotation": "%", "kinase still bound, per cent of control": 71}

###

- Measurement Target: STK10 (human)
- Procedure Text: KINOMEscan competition binding
- Condition Set: compound 10.0 µM

{"Substance Smiles": "N#Cc1c(NC(=O)c2cccc3ccccc23)sc2c1CCCC2", "kinase still bound, per cent of control": "67%"}
{"Substance Smiles": "Cc1ccc(C(=O)Nc2cccc(C(F)(F)F)c2)cc1Nc1cncc(C(N)=O)c1", "kinase still bound, per cent of control": "100%"}
{"Substance Smiles": "Cc1ccc2nc(NCCN)c3ncc(C)n3c2c1", "kinase still bound, per cent of control": "100%"}
{"Substance Smiles": "C=CC(=O)Nc1cccc(Oc2nc(Nc3ccc(N4CCN(C)CC4)cc3OC)ncc2Cl)c1", "kinase still bound, per cent of control": "100%"}
{"Substance Smiles": "C=CC(=O)Nc1cc(NC(=O)c2ccc(C)c(NC(=O)c3ccno3)c2)cc(C(F)(F)F)c1", "kinase still bound, per cent of control": "100%"}
{"Substance Smiles": "CCC(=O)N1CCN(c2ccc(-n3c(=O)ccc4cnc5ccc(-c6cnc7ccccc7c6)cc5c43)cc2C(F)(F)F)CC1", "kinase still bound, per cent of control": "79%"}
{"Substance Smiles": "CCOc1cc2ncc(C#N)c(Nc3ccc(OCc4ccccn4)c(Cl)c3)c2cc1NC(=O)/C=C/CN(C)C", "kinase still bound, per cent of control": "0%"}
{"Substance Smiles": "O=C(O)c1ccc(Nc2ncc3c(n2)-c2ccc(Cl)cc2C(c2c(F)cccc2F)=NC3)cc1", "kinase still bound, per cent of control": "6.7%"}
{"Substance Smiles": "OCCCNc1cc(-c2ccnc(Nc3cccc(Cl)c3)n2)ccn1", "kinase still bound, per cent of control": "100%"}
{"Substance Smiles": "O=C(NC1CC1)c1cccc(-c2ccc3c(NC(=O)C4CC4)n[nH]c3c2)c1", "kinase still bound, per cent of control": "57%"}
{"Substance Smiles": "CC[C@@H]1C(=O)N(C)c2cnc(Nc3ccc(C(=O)NC4CCN(C)CC4)cc3OC)nc2N1C1CCCC1", "kinase still bound, per cent of control": "100%"}

###

The following compounds are listed with their measured kinase still bound, per cent of control values.
- Measurement Target: NUAK1 (human) (UniProt O60285)
- Sequence (O60285 whole entry, looked up): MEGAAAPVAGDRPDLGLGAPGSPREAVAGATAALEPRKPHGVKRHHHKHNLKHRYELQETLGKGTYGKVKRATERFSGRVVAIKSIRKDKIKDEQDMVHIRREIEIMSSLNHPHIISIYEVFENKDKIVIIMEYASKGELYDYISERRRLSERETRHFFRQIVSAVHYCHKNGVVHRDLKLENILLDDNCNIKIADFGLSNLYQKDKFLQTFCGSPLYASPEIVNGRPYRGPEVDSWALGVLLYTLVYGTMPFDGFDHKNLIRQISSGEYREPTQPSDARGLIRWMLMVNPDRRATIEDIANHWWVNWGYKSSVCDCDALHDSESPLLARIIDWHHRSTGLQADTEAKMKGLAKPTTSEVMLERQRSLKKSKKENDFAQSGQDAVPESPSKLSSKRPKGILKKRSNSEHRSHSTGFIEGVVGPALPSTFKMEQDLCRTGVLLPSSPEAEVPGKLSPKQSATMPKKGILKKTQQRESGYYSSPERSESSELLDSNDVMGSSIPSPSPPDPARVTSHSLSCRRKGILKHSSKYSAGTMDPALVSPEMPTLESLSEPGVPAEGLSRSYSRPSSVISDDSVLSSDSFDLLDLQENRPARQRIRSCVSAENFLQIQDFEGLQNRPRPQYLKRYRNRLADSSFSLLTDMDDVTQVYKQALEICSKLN
- Procedure Text: KINOMEscan competition binding
- Condition Set: compound 10.0 µM
Property Label: kinase still bound, per cent of control (%)

{"Compound": "CC[C@@H]1C(=O)N(C)c2cnc(Nc3ccc(C(=O)NC4CCN(C)CC4)cc3OC)nc2N1C1CCCC1", "Measurement Target": "NUAK1 (human) (UniProt O60285)", "Number": 100}
{"Compound": "O=C(NC1CC1)c1cccc(-c2ccc3c(NC(=O)C4CC4)n[nH]c3c2)c1", "Measurement Target": "NUAK1 (human) (UniProt O60285)", "Number": 100}
{"Compound": "N#Cc1c(NC(=O)c2cccc3ccccc23)sc2c1CCCC2", "Measurement Target": "NUAK1 (human) (UniProt O60285)", "Number": 77}
{"Compound": "C=CC(=O)Nc1cccc(Oc2nc(Nc3ccc(N4CCN(C)CC4)cc3OC)ncc2Cl)c1", "Measurement Target": "NUAK1 (human) (UniProt O60285)", "Number": 0.65}
{"Compound": "O=C(NOC[C@H](O)CO)c1ccc(F)c(F)c1Nc1ccc(I)cc1F", "Measurement Target": "NUAK1 (human) (UniProt O60285)", "Number": 81}
{"Compound": "Nc1ccc(-c2ccc3ncc4ccc(=O)n(-c5cccc(C(F)(F)F)c5)c4c3c2)cn1", "Measurement Target": "NUAK1 (human) (UniProt O60285)", "Number": 83}
{"Compound": "COc1cc(C(=O)NC2CCN(C)CC2)ccc1Nc1ncc2c(n1)N(C1CCCC1)C(C)CC(=O)N2C (configuration not stated)", "Measurement Target": "NUAK1 (human) (UniProt O60285)", "Number": 100}

Value source: the kinase profiling compilation of Christmann-Franck et al. (2016)
